Each recorded value in this set is attributed to PubChem BioAssay.

# RUN_DESCRIPTION: small-molecule microarray binders of probe aCHRDL2, primary screen, biochemical, biotinylated probe, 635/667 nm fluorescence (AID 1100)
# CONDITION_NOTES: higher = more signal
Give composite z-score for every item shown.
Output spec: single numeric token, no unit.

Form field: reported composite z-score of "COCCOC(=O)N1C(=O)[C@@]2(c3cc(C#CC4(O)CCCCCC4)ccc31)[C@H](c1ccc(O)cc1)N1[C@H](c3ccccc3)[C@H](c3ccccc3)OC(=O)[C@H]1[C@@H]2C(N)=O" 0.375

# lookup: composite z-score of "COc1ccc([Si](C)(C)[C@H]2[C@H](CC(=O)N3Cc4ccccc4C[C@H]3CO)O[C@@]3(C(=O)N(Cc4cccc(N5C(=O)COc6ccccc65)c4)c4ccccc43)[C@@H]2C)cc1" -0.261

Consider the molecule shown here: "CCCCCCC#C[Si](O[C@H](c1ccccc1)c1cn(Cc2ccccc2)nn1)(C(C)C)C(C)C" What is its recorded composite z-score? -0.14

What composite z-score value was documented for this molecule, "NCCCCCNC(=O)[C@H]1C[C@H]2C(=O)NCC(=O)N2[C@H]1c1ccc(O)cc1" ? 0.212

Quick one: composite z-score for "CO[C@H]1O[C@H](CO)[C@@H](OC(=O)CCc2ccccc2)[C@@H]2OC(=O)[C@H](Cc3ccccc3)C/C=C/C[C@@H](Cc3ccccc3)C(=O)O[C@@H]12" ? 0.268

# lookup: composite z-score of "CC(C)C[C@@H]1NC(=O)[C@@H]2C[C@H](C(=O)NCCCCCNC(=O)CS)[C@H](c3cccc(OCCO)c3)N2C1=O" 0.619

###

Could you please report measured z-score for the items listed next?
# RUN_DESCRIPTION: osmotic lysis modulators in infected erythrocytes, primary screen, PSAC antagonist project, cell-based, P. falciparum Indochina, OD700, 3 h (AID 1156)
# CONDITION_NOTES: higher = more signal, called active from +8 up or from −8 down
Reply: number alone, nothing else.

Which z-score is listed for "O=C1O[C@H](c2ccccc2)[C@H](c2ccccc2)N2[C@H]1[C@@H](C(=O)Nc1nc3ccccc3s1)[C@]1(C(=O)Nc3ccc(C#CCCO)cc31)[C@H]2c1ccccc1OCCO" ? 1.4

# lookup: z-score of "C=C(C(=O)CC[C@@H](OC(C)=O)c1ccccc1OCCO)C(C)C" -1.49

Requested read-out: z-score. Entry: "CCCCC(=C=CC[C@H](O)c1cccc(OCCO)c1)CCO" 1.2

Which z-score value is on record for "C=CC[C@@]1(C(=O)NCc2ccccc2)N=C(c2ccc(OCCCO)cc2)O[C@@H]1c1ccccc1" ? 2.34

Can you look up the measured z-score of "C=CCNC(=O)[C@@H]1[C@H]2C(=O)O[C@H](c3ccccc3)[C@H](c3ccccc3)N2[C@H](c2ccc(O)cc2)[C@@]12C(=O)Nc1ccccc12" for me? 0.253

So what's the measured z-score for this one? "CCCCCCC#C[Si](O[C@H](c1ccccc1)c1cn(Cc2ccccc2)nn1)(C(C)C)C(C)C" -0.0275

I am curious: what z-score value has been reported for "C=CCN1C(=O)[C@@]2(O[C@@H](CCn3cc(CCO)nn3)[C@H]([Si](C)(C)c3ccc(OC)cc3)[C@H]2C)c2cc(N3C(=O)c4cccc5cccc3c45)ccc21" ? -0.551

###

# RUN_DESCRIPTION: A2780 ovarian cancer cell cytotoxicity, dose response, cytotoxicity control, plate reader, dry powder samples (AID 743046);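 note: 0% = neutral control wells and -100% = cytotoxic reference compound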
# CONDITION_NOTES: series mostly up to 35 µM
Entries with a potency or affinity are not part of this list. The source made the active and inactive calls. How the calls were made is not given here.
MEASURED_ENDPOINT: activity change, negative = cytotoxicity

Known results for compounds:
1. C[C@@H]1CN([C@H](C)CO)C(=O)c2cc(NC(=O)Nc3ccc(C(F)(F)F)cc3)ccc2O[C@@H](C)CCCCO[C@H]1CN(C)S(=O)(=O)c1ccccc1 inactive
2. C[C@@H]1CN([C@H](C)CO)C(=O)c2cc(NC(=O)Nc3ccccc3)ccc2O[C@@H](C)CCCCO[C@H]1CN(C)Cc1ccc(C(F)(F)F)cc1 inactive
3. CN1c2ccc(-c3cccc(F)c3)cc2[C@@H]2[C@@H](CCN2C(=O)Cc2ccccc2)[C@@H]1CO inactive
4. C[C@@H]1CN([C@@H](C)CO)C(=O)c2cc(NC(=O)Nc3ccc(C(F)(F)F)cc3)ccc2O[C@@H](C)CCCCO[C@H]1CN(C)Cc1ccc2c(c1)OCO2 inactive
5. COc1ccc(S(=O)(=O)Nc2ccc3c(c2)C(=O)N([C@H](C)CO)C[C@@H](C)[C@@H](CN(C)Cc2ccc(C(F)(F)F)cc2)OCCCC[C@H](C)O3)cc1 inactive

// next item, activity change, negative = cytotoxicity requested
Give the measured activity change, negative = cytotoxicity of "Cc1ccc(S(=O)(=O)N[C@@H]2C=C[C@@H](CC(=O)N3CCC(Cc4ccccc4)CC3)O[C@@H]2CO)cc1" . inactive

###

# EXPERIMENTAL_TARGET: Albumin (Bos taurus) (UniProt P02769)
# Sequence (P02769 whole entry, looked up): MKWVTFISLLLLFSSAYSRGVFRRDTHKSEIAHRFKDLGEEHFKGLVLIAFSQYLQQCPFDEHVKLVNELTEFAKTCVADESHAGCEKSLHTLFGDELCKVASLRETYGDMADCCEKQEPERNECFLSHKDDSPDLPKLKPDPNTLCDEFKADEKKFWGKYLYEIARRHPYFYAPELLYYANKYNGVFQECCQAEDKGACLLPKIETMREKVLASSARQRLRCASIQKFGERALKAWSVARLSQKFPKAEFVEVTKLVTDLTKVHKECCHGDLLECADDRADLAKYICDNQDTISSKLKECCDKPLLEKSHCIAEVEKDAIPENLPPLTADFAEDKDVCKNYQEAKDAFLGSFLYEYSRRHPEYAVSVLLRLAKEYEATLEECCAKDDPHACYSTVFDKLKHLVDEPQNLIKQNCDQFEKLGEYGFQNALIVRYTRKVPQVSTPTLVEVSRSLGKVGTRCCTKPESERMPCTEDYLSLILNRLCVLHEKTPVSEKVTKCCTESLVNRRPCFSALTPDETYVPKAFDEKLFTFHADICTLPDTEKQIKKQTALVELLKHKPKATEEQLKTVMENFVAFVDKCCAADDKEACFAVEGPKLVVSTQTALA
# RUN_DESCRIPTION: bovine serum albumin binders on microarray, profiling panel, artefact control for SMM control protein annotation, biochemical, small-molecule microarray, Alexa647 label, 635/667 nm fluorescence (AID 1118);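 note: score merges 667 nm emission intensity and signal-to-noise per printed compound spot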
# CONDITION_NOTES: BSA-A647 binding, fluorescence 635 nm, higher = more signal
MEASURED_ENDPOINT: composite z-score
// return just the number, without any unit appended

Requested read-out: composite z-score. Entry: "CC(C)CNC(=O)[C@@H]1c2ccccc2C(=O)N(Cc2ccc(OC(F)(F)F)cc2)[C@H]1c1ccc(CO)cc1" 0.0335

Suppose we examine the molecule "COc1ccc([Si](C)(C)[C@H]2[C@H](CC(=O)N3Cc4ccccc4C[C@H]3CO)O[C@@]3(C(=O)N(Cc4cccc(N5C(=O)COc6ccccc65)c4)c4ccccc43)[C@@H]2C)cc1" ; what composite z-score value has been reported? -0.534

Form field: reported composite z-score of "C=CC[C@@H](OC(=O)Nc1ccc(SC)cc1)c1ccc(OCCO)cc1" -0.733

Suppose we examine the molecule "O=C(NCc1ccccc1)[C@@H]1c2ccccc2C(=O)N(Cc2ccccc2Cl)[C@H]1c1ccc(CO)cc1" ; what composite z-score value has been reported? -0.0154

State the recorded composite z-score for this entry: "[N-]=[N+]=Nc1ccccc1[C@H]1OC(c2ccc(OCCCO)cc2)=N[C@@]1(Cc1ccccc1)C(N)=O" 0.869

For the molecule "CC(C)(C)OC(=O)CC[C@@]1(C(=O)NCc2ccccc2)N=C(c2ccc(OCCCO)cc2)O[C@@H]1c1ccccc1CN=[N+]=[N-]" , what composite z-score is on record? 0.871

Which composite z-score value belongs to "COCCCNC(=O)[C@@]1(Cc2ccccc2)N=C(c2ccc(OCCCO)cc2)O[C@H]1c1ccccc1N=[N+]=[N-]" ? 0.765

###

# RUN_DESCRIPTION: basal 3T3-L1 adipocyte mitochondrial potential changes, profiling panel, cell-based, JC-1 fluorescence, 3T3-L1 adipocytes, 24 h, 100 nL compound (AID 1168)
# CONDITION_NOTES: JC-1 mitochondrial fluorescence, higher = more signal, called active from +8 up or from −8 down
MEASURED_ENDPOINT: z-score
I'd appreciate a reply containing only the number, no unit.

Return reported z-score; argument: "COc1ccc([Si](C)(C)[C@@H]2[C@@H](CC(=O)N3CCC[C@H]3CO)O[C@]3(C(=O)N(Cc4ccc(I)cc4)c4ccccc43)[C@H]2C)cc1" 1.67

Report z-score for "COc1ccc([Si](C)(C)[C@@H]2[C@@H](CCn3cc(CCO)nn3)O[C@]3(C(=O)N(Cc4ccc(N5C(=O)c6cccc7cccc5c67)cc4)c4ccccc43)[C@H]2C)cc1" please. 2.83

z-score lookup needed for CC1CC/C=C\[C@H]2OC34C=CCN(C(C)C)C(=O)[C@H]3N(C(CO)C(C)C)C(=O)[C@@H]4C2C(=O)O1 (some centres undefined) , thanks. 1.39

Any idea what z-score was measured for "[N-]=[N+]=NCc1ccccc1C[C@@]1(C(=O)O)N=C(c2ccc(OCCCO)cc2)O[C@@H]1c1ccccc1" ? 0.493

z-score for "CC(C)(C)OC(=O)CC[C@]1(C(=O)NCc2ccccc2)COC(c2ccc(OCCCO)cc2)=N1" ? 0.186

Would you kindly share the measured z-score for "COC(=O)c1c2oc(c1C(=O)OC)C(=O)N[C@@H](C(C)C)Cn1nncc1C1(CCCCC1)NC(=O)N[C@H](CO)CC2" ? 0.994

Recorded z-score for "O=C1O[C@H](c2ccccc2)[C@H](c2ccccc2)N2[C@H]1[C@@H](C(=O)Nc1nc3ccccc3s1)[C@]1(C(=O)Nc3ccc(C#CCCO)cc31)[C@H]2c1ccccc1OCCO" , please? 1.18

# lookup: z-score of "C[N+](C)(C)CCCC[C@@H]1NC(=O)[C@H]2C[C@@H](C(=O)NCCCCCN)[C@@H](c3cccc(OCCO)c3)N2C1=O" 0.0454

# query: z-score of entry "COc1ccc(C(=O)Nc2cccc(CN3C(=O)[C@@]4(O[C@@H](CCO)[C@H]([Si](C)(C)c5ccc(OC)cc5)[C@H]4C)c4ccccc43)c2)cc1" 2.77

Given the molecule "CCCCC(=C=CC[C@H](O)c1cccc(OCCO)c1)CCO" , what is its reported z-score? 0.439

Param item = C=CCC(OC(C)=O)[C@@H]1[C@@H](N(Cc2cc3ccccc3o2)C(=O)c2ccc(-c3ccccc3)cc2)c2cc(OCCCO)ccc2N1C(=O)c1ccc(-c2ccccc2)cc1 (some centres undefined) ; retrieve measured z-score. 0.604

Need z-score of "C[N+](C)(C)CCCC[C@@H]1NC(=O)[C@@H]2C[C@H](C(=O)NCCCCCNC(=O)CS)[C@H](c3ccc(O)cc3)N2C1=O" , thanks. 0.385

What value of z-score has been recorded for this entry: "CC(=O)NCCCC[C@@H]1NC(=O)[C@@H]2C[C@H](C(=O)O)[C@H](c3cccc(OCCO)c3)N2C1=O" 0.317

Dear colleague, I am looking for the recorded z-score of the following molecule: "C=C(/C(=C/C[C@H](OC(C)=O)c1cccc(OCCO)c1)c1cc(C(=O)OC)ccc1OC)C(C)C" 1.91
